System: inflammation induced by tetradecanoyl phorbol acetate (TPA)
test.method.notes: TPA model: inflammation (ear edema) induced by tetradecanoyl phorbol acetate in mice
Type: in vivo
condition.details: 100 μg/ear topical, mouse ear, TPA stimulus, edema measured four hours later
Measured % Inhibition of Control Inflammation, listed per entry for reference.
Number in %, nothing else.

Worked set:
compound	% Inhibition of Control Inflammation (%)
CCCC(n1ccnc1)C(O)(c1ccc(F)cc1)c1ccc(F)cc1 (centres unmarked) [Example 3c]	30
CC(n1ccnc1)C(O)(c1ccc(Cl)cc1)c1ccc(Cl)cc1 (centres unmarked) [Example 3e]	55
CC(n1ccnc1)C(O)(c1ccc(F)cc1)c1ccc(F)cc1 (centres unmarked) [Example 3b]	40

So for OC(CCCn1ccnc1)(c1ccc(F)cc1)c1ccc(F)cc1 [Example 1a] , the logged % Inhibition of Control Inflammation turned out to be 31

So for CCC(n1ccnc1)C(O)(c1ccc(F)cc1)c1ccc(F)cc1 (racemic) [Example 3a] , the logged % Inhibition of Control Inflammation turned out to be 40

* * *

Tested on: inflammation induced by tetradecanoyl phorbol acetate (TPA)
test.method.notes: TPA model: inflammation (ear edema) induced by tetradecanoyl phorbol acetate in mice
Type: in vivo
condition.details: 100 μg/ear topical, mouse ear, TPA stimulus, edema measured four hours later
observation.type: % Inhibition of Control Inflammation (%)
Number in %, nothing else.

Worked set:
molecule	observation.type	uom	measurement
C[C@@H](n1ccnc1)C(O)(c1ccc(Cl)cc1)c1ccc(Cl)cc1 [Example 5a]	% Inhibition of Control Inflammation	%	61
OC(Cn1ccnc1)(c1ccc(F)cc1)c1ccc(Br)cc1 (stereo not drawn) [Example 2b]	% Inhibition of Control Inflammation	%	41

# evaluate next
So for Cc1ccc(C(O)(c2ccc(C)cc2)[C@H](C)n2ccnc2)cc1 [Example 4a] , the logged % Inhibition of Control Inflammation turned out to be 33
